Recorded values, source ChEMBL document CHEMBL3301458.

Target: UniProt:Q12809
Sequence (Q12809 whole entry): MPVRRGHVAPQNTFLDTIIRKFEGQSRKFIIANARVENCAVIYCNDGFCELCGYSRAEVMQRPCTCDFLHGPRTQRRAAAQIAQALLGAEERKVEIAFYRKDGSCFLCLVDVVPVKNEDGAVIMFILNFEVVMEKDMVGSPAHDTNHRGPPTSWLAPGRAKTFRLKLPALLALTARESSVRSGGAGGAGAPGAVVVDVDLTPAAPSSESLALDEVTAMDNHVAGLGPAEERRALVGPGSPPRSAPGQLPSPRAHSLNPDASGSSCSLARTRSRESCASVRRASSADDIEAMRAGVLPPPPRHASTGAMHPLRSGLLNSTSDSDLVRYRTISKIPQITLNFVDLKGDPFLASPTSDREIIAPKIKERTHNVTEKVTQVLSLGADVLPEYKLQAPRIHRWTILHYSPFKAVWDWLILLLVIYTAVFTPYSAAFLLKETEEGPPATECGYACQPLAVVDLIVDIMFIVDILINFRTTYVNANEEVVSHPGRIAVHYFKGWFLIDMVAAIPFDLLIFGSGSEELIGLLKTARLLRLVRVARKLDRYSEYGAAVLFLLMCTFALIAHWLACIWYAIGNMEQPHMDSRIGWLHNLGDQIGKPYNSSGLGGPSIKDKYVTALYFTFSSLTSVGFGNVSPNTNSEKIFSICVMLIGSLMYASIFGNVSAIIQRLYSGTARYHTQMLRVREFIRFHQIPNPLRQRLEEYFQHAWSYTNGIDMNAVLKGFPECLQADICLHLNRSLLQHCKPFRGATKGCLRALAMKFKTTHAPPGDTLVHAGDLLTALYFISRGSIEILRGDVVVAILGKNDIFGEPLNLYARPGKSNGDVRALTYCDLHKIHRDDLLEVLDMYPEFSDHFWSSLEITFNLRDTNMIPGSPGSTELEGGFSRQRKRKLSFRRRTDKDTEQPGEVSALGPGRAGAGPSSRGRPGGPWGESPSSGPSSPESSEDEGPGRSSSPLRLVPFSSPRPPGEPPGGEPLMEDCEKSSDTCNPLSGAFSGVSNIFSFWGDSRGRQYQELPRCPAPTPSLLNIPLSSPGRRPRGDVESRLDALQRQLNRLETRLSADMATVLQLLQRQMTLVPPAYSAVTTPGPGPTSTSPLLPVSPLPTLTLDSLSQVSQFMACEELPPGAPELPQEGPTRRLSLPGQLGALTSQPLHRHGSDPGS
Assay: in vitro
Description: MMV: Malaria Box compounds were tested for inhibition of the human ether a go-go related gene (hERG), Kv11.1 channel, using IonWorks 384-well patch clamp electrophysiology at 1.1uM (3 independent assay plates up to 12 cells per concentration).
observable: inhibition at 1.1 µM (%)
Numbers only, in %.

{"molecule": "Cc1cc(C=C2SC(=Nc3ccccc3)N(C3CCCC3)C2=O)c(C)n1-c1ccc(Cl)cc1", "inhibition at 1.1 µM (%)": 5}
{"molecule": "O=C(Nc1ccc(-c2nc3ccccc3[nH]2)cc1)c1ccc(Cl)c(Cl)c1", "inhibition at 1.1 µM (%)": 2}
{"molecule": "CCOC(=O)c1cnc2ccc(OC)cc2c1Nc1ccc(N2CCN(C)CC2)cc1", "inhibition at 1.1 µM (%)": 15}
{"molecule": "CNCCCNc1ccnc2cc(Cl)ccc12", "inhibition at 1.1 µM (%)": -1}
{"molecule": "O=C(Nc1ccc(-c2nc3cc(NC(=O)c4ccc(Cl)cc4)ccc3[nH]2)cc1)c1ccc(Cl)cc1", "inhibition at 1.1 µM (%)": -9}
{"molecule": "Cc1cc(C)cc(Nc2cc(C)nc3nc(C(F)(F)F)nn23)c1", "inhibition at 1.1 µM (%)": 20}
{"molecule": "COc1ccc(C(=O)Nc2ccc3nc(N4CCCCC4)cc(C)c3c2)cc1OC", "inhibition at 1.1 µM (%)": 63}
{"molecule": "Cc1cc(N(C)C)nc(Nc2ccc(NC(=O)Nc3ccccc3)cc2)n1", "inhibition at 1.1 µM (%)": 2}

Required: inhibition at 1.1 µM, one value per molecule below.
1. CCN(CC)S(=O)(=O)c1ccc(-c2csc(Nc3ccc(C)c(C)c3)n2)cc1
2. C[n+]1c2ccccc2nc2ccc(NCCO)cc21
3. O=C(Nc1ccc(Cl)c(Cl)c1)Nc1ccc(Cl)c(Cl)c1
4. CN(N=O)C1=C(NC2CCCCC2)C(=O)c2ccccc2C1=O

[-7, 8, 15, -2]

###

Molecular target: UniProt Q12809
Assay: in vitro
observable: inhibition at 1.1 µM (%)
Give bare numbers, in %.

Here's what some known entries look like.
{"compound": "COc1cc(SC)ccc1C(=O)N1CCCC(C)C1 (stereo unspecified)", "tested on": "UniProt Q12809", "inhibition at 1.1 µM [%]": 16}
{"compound": "O=C(NC1CCN(Cc2ccccc2)CC1)c1cc(C(=O)NC2CCN(Cc3ccccc3)CC2)cc(C(=O)NC2CCN(Cc3ccccc3)CC2)c1", "tested on": "UniProt Q12809", "inhibition at 1.1 µM [%]": -2}
{"compound": "O=C(O)C1Cc2c([nH]c3ccccc23)C(c2ccc(Cl)cc2Cl)N1 (stereo unspecified)", "tested on": "UniProt Q12809", "inhibition at 1.1 µM [%]": -5}
{"compound": "CC(=O)c1sc(NC(=O)Nc2ccc(C)cc2C)nc1C", "tested on": "UniProt Q12809", "inhibition at 1.1 µM [%]": 7}
{"compound": "CCOc1cc(Cl)c(C(C)NC(=O)c2cccc(OC)c2)cc1OCC (stereo unspecified)", "tested on": "UniProt Q12809", "inhibition at 1.1 µM [%]": -3}

Kindly give each listed record's inhibition at 1.1 µM.
1. Oc1ccc(Br)cc1CN1CCN(Cc2cccc(F)c2)CC1
2. CCOc1ccc2c(c1)CN(Cc1ccc(Cl)cc1)CO2
3. CN(C)c1ccc(C=Cc2nc(=O)c3ccccc3o2)cc1
4. COc1ccc(-c2nonc2NC(=O)c2cccc(C)c2)cc1OC
5. COc1ccc(N2CCN(C(CNC(=O)C3CCCCC3)c3ccc4c(c3)OCO4)CC2)cc1 (stereo unspecified)
6. COCCN(C(=O)Cc1cccs1)C(C(=O)NCc1ccc(OC)cc1)c1ccc(C(C)C)cc1 (stereo unspecified)

[-1, 33, 2, 5, 17, 11]
